- Tested on: DA-autoreceptors
- testName: Inhibition of spontaneous locomotor activity (motility inhibition) in rats
- Format: in vivo, rat (Wistar)
- conditionParameters: doses calculated as the free amine
We begin with a simple list: items and their reported Motility Inh. rats (sc) ED50.
Your answer is read as µmol/kg, so omit the unit and give the number.

Solved entries:
CCCN(CCC)CC1COc2ccc(O)cc21 (single isomer, unassigned; (-)) [Lu 24-121]	5.4
CCN(CC)CC1COc2ccc(O)cc21 (stereo not shown)	1.7
CCCN(CCO)CC1COc2ccc(O)cc21 (stereo not shown)	5.4
CCN(CC)CC1CCc2ccc(OC(=O)C(C)(C)C)cc21 (stereo not shown)	0.84
CCCN(CCC)CC1CCc2ccc(O)cc21 (stereo not shown) [Lu 21-051]	0.45

Answer with reported Motility Inh. rats (sc) ED50 of CCN(CC)CC1CCc2ccc(O)cc21 (stereo not shown) [Lu 21-096, N,N-diethyl-6-hydroxy-1-indanmethylamine]
1.0

Answer with reported Motility Inh. rats (sc) ED50 of CN(C)CC1CCc2ccc(O)cc21 (stereo not shown)
5.7

Answer with reported Motility Inh. rats (sc) ED50 of CCCN(CCC)CC1CSc2ccc(O)cc21 (stereo not shown)
3.0

Answer with reported Motility Inh. rats (sc) ED50 of CCCN(CCc1ccccc1)CC1CCc2ccc(O)cc21 (stereo not shown)
0.51

Answer with reported Motility Inh. rats (sc) ED50 of CCCN(C)CC1COc2ccc(O)cc21 (stereo not shown) [Lu 24-103]
4.5

Answer with reported Motility Inh. rats (sc) ED50 of CCN(CC)CC1CCc2ccc(O)cc21 (single isomer, unassigned; (+)) [Lu 22-106]
1.1

Answer with reported Motility Inh. rats (sc) ED50 of CCCN(C)CC1CCc2ccc(O)cc21 (stereo not shown)
0.65

Answer with reported Motility Inh. rats (sc) ED50 of CCCNCC1CCc2ccc(O)cc21 (stereo not shown) [Lu 21-138, 6-Hydroxy-N-propyl-1-indanmethylamine]
19

* * *

- System: DA-autoreceptors
- testName: Inhibition of spontaneous locomotor activity (motility inhibition) in rats
- Type: in vivo, rat (Wistar)
- conditionParameters: doses calculated as the free amine
Param threshold (0.8 µmol/kg) applies to Motility Inh. rats (sc) ED50; output yes when value >= threshold, no when value < threshold.

As a guide, the following entries are already answered.
CCCN(C)CC1COc2ccc(O)cc21 (single isomer, unassigned; (+)) [Lu 25-020]	yes
CCCCN(CCCC)CC1CCc2ccc(O)cc21 (stereo not drawn) [Lu 22-028, N,N-Dibutyl-6-hydroxy-1-indanmethylamine]	yes
CCCN(CCc1ccccc1)CC1COc2ccc(O)cc21 (stereo not drawn)	yes
CN1CCc2cccc3c2[C@H]1Cc1ccc(O)c(O)c1-3 [Apomorphine, apomorphine, reference compound]	no

Identify whether the reported Motility Inh. rats (sc) ED50 of the following molecule is 0.8 µmol/kg or greater: CCCN(CCc1cccs1)CC1COc2ccc(O)cc21 (stereo not drawn)
yes

* * *

- System: postsynaptic DA-receptors
- testName: Reversal of locomotor depression (hypomotility) in reserpine plus alpha-methyl-p-tyrosine pretreated rats
- Format: in vivo, rat (Wistar)
endpointName: Reserpin α-Mt Rev. rats (sc) ED50 (µmol/kg)
Your answer is read as µmol/kg, so omit the unit and give the number.

Solved entries:
CCCN(CCC)CC1CCc2ccc(O)cc21 (single isomer, unassigned; (-)) [Lu 22-050]	60
CCCN(CCC)CC1COc2ccc(O)cc21 (stereo not drawn) [Lu 23-130]	3.4
CCCN(CCC)CC1CCc2ccc(O)cc21 (single isomer, unassigned; (-)) [Lu 22-049]	4.5
CCCN(CCc1ccccc1)CC1COc2ccc(O)cc21 (stereo not drawn)	11
CCCN(CCO)CC1COc2ccc(O)cc21 (stereo not drawn)	19

Answer with reported Reserpin α-Mt Rev. rats (sc) ED50 of CCCN(CCc1cccs1)CC1COc2ccc(O)cc21 (stereo not drawn)
28

Answer with reported Reserpin α-Mt Rev. rats (sc) ED50 of CCCN(C)CC1CCc2ccc(O)cc21 (stereo not drawn)
66

Answer with reported Reserpin α-Mt Rev. rats (sc) ED50 of CCCN(C)CC1COc2ccc(O)cc21 (stereo not drawn) [Lu 24-103]
290

* * *

We begin with a simple list: items and their reported Motility Inh. rats (sc) ED50.
- Test system: DA-autoreceptors
- testName: Inhibition of spontaneous locomotor activity (motility inhibition) in rats
- Assay type: in vivo, rat (Wistar)
- conditionParameters: doses calculated as the free amine

Solved entries:
CCCN1CCC[C@@H](c2cccc(O)c2)C1 [(--)-3-PPP, reference compound]	4.2 to 11 µmol/kg
CCCN(CCC)CC1COc2ccc(O)cc21 (stereo not drawn) [Lu 23-130]	0.5 to 2 µmol/kg

Answer with reported Motility Inh. rats (sc) ED50 of CCCN(CCC)CC1CCc2ccccc21 (stereo not drawn)
> 62 µmol/kg
